test system: L1210 leukemia ip in BDF1 mice, survival T/C; test: NCI In Vivo Anticancer Drug Screen. Data for tumor model L1210 Leukemia (intraperitoneal) in B6D2F1 (BDF1) mice; conditions: endpoint: mean survival time; dose: 200.0 mg/kg/injection; schedule: Q01DX001 (ip); vehicle: saline; higher = longer survival
Inconclusive results and toxic doses are left out.
So I've got a bunch of compounds here, and I need their T/C values.

Form entry - test system: L1210 leukemia ip in BDF1 mice, survival T/C; read-out: T/C; compound: Cc1cccc(NC(=O)OCCN(CCOC(=O)Nc2cccc(C)c2)c2cccc(C)c2)c1 90 % of control

Look up T/C with L1210 leukemia ip in BDF1 mice, survival T/C for this compound: O=Cc1c2ccccc2cc2ccccc12 101 % of control

Lookup: T/C / L1210 leukemia ip in BDF1 mice, survival T/C / CC(=O)CC(C)(C)S(=O)(=O)O 100 % of control

What is its T/C for L1210 leukemia ip in BDF1 mice, survival T/C? Entry: CC(C)C12CCC(C)(O1)C(O)C2O (stereo not drawn) 104 % of control

Record lookup: for L1210 leukemia ip in BDF1 mice, survival T/C, what T/C belongs to Cc1ccc2c(C)c3ccc4ccccc4c3c[n+]2c1 ? 104 % of control

Test system L1210 leukemia ip in BDF1 mice, survival T/C; read-out T/C; what value for CC(=O)c1ccc(OC(=O)C(C)(C)C)cc1 ? 103 % of control

What value of T/C on L1210 leukemia ip in BDF1 mice, survival T/C does COc1ccc(N(CCO)CCO)cc1 have? 96 % of control

Look up T/C with L1210 leukemia ip in BDF1 mice, survival T/C for this compound: CC1(C)CC2(CC3(C1)SCCS3)SCCS2 97 % of control

Enter reported T/C observed with L1210 leukemia ip in BDF1 mice, survival T/C for CC(C)C1C(C(N)=O)C(=O)OC1(C)C (stereo not drawn) 98 % of control

# returns recorded T/C (system: L1210 leukemia ip in BDF1 mice, survival T/C) for CC(C)(SCC(N)C(=O)O)C(N)C(=O)O (stereo not drawn) 90 % of control

T/C of Cn1c(=O)cc(CC(=O)C(=O)O)c2ccccc21 on L1210 leukemia ip in BDF1 mice, survival T/C? 93 % of control

// lookup T/C | system=L1210 leukemia ip in BDF1 mice, survival T/C | key= NC(c1ccccc1)(c1ccccc1)c1ccccc1 101 % of control

Param readout = T/C; param system = L1210 leukemia ip in BDF1 mice, survival T/C; param query = Clc1ccc(/C=N/N2CCN(/N=C/c3ccc(Cl)c(Cl)c3)CC2)cc1Cl ; response: value 92 % of control

----------
tested on: L1210 leukemia ip in BDF1 mice, survival T/C; assay: NCI In Vivo Anticancer Drug Screen. Data for tumor model L1210 Leukemia (intraperitoneal) in B6D2F1 (BDF1) mice; settings: endpoint: mean survival time; dose: 400.0 mg/kg/injection; schedule: Q01DX001 (ip); vehicle: saline; higher = longer survival
Inconclusive results and toxic doses are left out.
metric: T/C

So what does the record say about T/C for C1CCNNC1 ? 95 % of control

# T/C lookup, item CC1=CP(=O)(c2ccccc2)CC1 (stereo not drawn) 105 % of control

Data request, read-out T/C, for CCOC(=O)CS(C)(=O)=O 94 % of control

Tell me the measured T/C of CCCCCC(/C=N\NC(=O)CCCC(=O)N/N=C/C(=C/c1ccccc1)CCCCC)=C\c1ccccc1 , please. 89 % of control

Returns the measured T/C for the input molecule. Input: c1ccc2sc(SSc3nc4ccccc4s3)nc2c1 104 % of control

Given the molecule CCCCCC(/C=N/NC(=O)c1cccc2ccccc12)=C\c1ccccc1 , what is its reported T/C? 97 % of control

// query T/C value for entry Cc1c(C)n(C2OC(CO)C(O)C2O)c(=O)[nH]c1=O (stereo not drawn) 93 % of control

Requested read-out: T/C. Entry: CC(=O)Nc1ccc2c(=O)cc[nH]c2n1 95 % of control

Recorded T/C for Cc1cccc(NC(=O)OCCN(CCOC(=O)Nc2cccc(C)c2)c2cccc(C)c2)c1 , please? 94 % of control

Given the molecule Clc1ccc(/C=N/N2CCN(/N=C/c3ccc(Cl)c(Cl)c3)CC2)cc1Cl , what is its reported T/C? 92 % of control

Please look up its T/C: CC(=O)NCC(C)(C)c1ccccc1 110 % of control

Entry under review: Cn1cc(/C=C\[N+](=O)[O-])c2ccccc21 . Reported T/C? 98 % of control

Fill in: T/C of COc1ccc(C(C)=O)c(O)c1OC is ___ 98 % of control

Data origin, for the record: PubChem BioAssay AID248
